# measurement-notes: Acute toxicity in mice, single i.p. injection
# experimental-context: mouse, in vivo, ip, Table 3, 1000 (*) or 500 (**) μmole/kg, read-out: acute toxicity (asterisk), lethality in 7 days
measured-property: mortality at 168 h

{"compound-structure-string": "O=C(NCc1cc(CNC(=O)c2cccc(=O)n2O)cc(CNC(=O)c2cccc(=O)n2O)c1)c1cccc(=O)n1O", "measured-result": "50 to 100%"}
{"compound-structure-string": "O=C(NCCCN(CCCCN(CCCNC(=O)c1cccc(=O)n1O)C(=O)c1cccc(=O)n1O)C(=O)c1cccc(=O)n1O)c1cccc(=O)n1O", "measured-result": "50 to 100%"}
{"compound-structure-string": "O=C(NCCCCN(CCCNC(=O)c1cccc(=O)n1O)C(=O)c1cccc(=O)n1O)c1cccc(=O)n1O", "measured-result": "50 to 100%"}
